Assay text: PGC1a acetylation increase, cellular AlphaLISA – cell-based, cherry-picked samples, set 6, dose response (AID 720513);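 note: cells made to overexpress flag tagged PGC1a plus GCN5 acetyltransferase by viral infection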
Settings: U2OS PGC1a acetylation AlphaLISA, overnight, 0 = neutral, -100 = inhibitor control; series mostly up to 19.5 µM
In all, about 2,100 compounds went through this assay and about 480 (23%) were called active. Another 5% or so got no clear call; they are omitted. Not all results are given here. Entries with a potency or affinity are not part of this list.
Property label: outcome

Example results:
> print(dat)
                                   compound  property.label  assay.result
1                 O=C(OCc1cnc(Cl)s1)c1cccs1         outcome      inactive
2  Cc1cc(N)c2cc(NC(=O)/C=C/c3ccccc3Cl)ccc2n1         outcome      inactive
3  CC(NCc1cccs1)C(=O)NC1CCCCC1 (stereo not given)         outcome      inactive
4  COc1ccc(-n2c(C)c([N+](=O)[O-])c3ccc(O)c(CN(C)C)c32)cc1         outcome      inactive
5  COc1ccc2c3c(n(C)c2c1)[C@H](CO)NCC31CCN(Cc2cc(F)ccc2F)CC1         outcome      inactive
6  CCCC#Cc1ccc2c(c1)O[C@@H](CN(C)C(=O)C1CC1)[C@@H](C)CN([C@@H](C)CO)S2(=O)=O         outcome      inactive
7  CCOC(=O)C1CN(S(=O)(=O)c2ccc(C)cc2)c2cc(S(=O)(=O)CC)ccc2O1 (stereo not given)         outcome      inactive
8  CC(C)(C)NS(=O)(=O)c1ccc(CCC(=O)N2CCOCC2)cc1         outcome      inactive

For the compound shown here, C[C@@H]1CN([C@H](C)CO)C(=O)CCCn2cc(nn2)CO[C@@H]1CN(C)C(=O)NC1CCCC1 , give the reported outcome.
inactive

Another compound to look at: CC1=C(C(=O)OC(C)(C)C)C(c2ccc3ccccc3c2)NC(=O)N1C (stereo not given)
inactive

---

Assay text: PGC1a acetylation increase, cellular AlphaLISA – cell-based, cherry-picked samples, set 6, dose response (AID 720513);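 note: cells made to overexpress flag tagged PGC1a plus GCN5 acetyltransferase by viral infection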
Settings: U2OS PGC1a acetylation AlphaLISA, overnight, 0 = neutral, -100 = inhibitor control; series mostly up to 19.5 µM
Screen size: about 2,100 compounds; about 480 (23%) were called active. Roughly 5% stayed inconclusive and do not appear here. The list is a sample of the results. Measured potencies and affinities stand elsewhere.
Property label: outcome

> print(dat)
                                        mol  assay.result
1  CCOC(=O)N1CCN(C(=O)c2cc(S(=O)(=O)N3CCCC3)cn2C)CC1      inactive
2         O=C(COc1ccc(Cl)cc1Cl)NCCCN1CCOCC1      inactive
3               CCCc1nnc(NC(=O)CN2CCOCC2)s1      inactive

---

Assay text: PGC1a acetylation increase, cellular AlphaLISA – cell-based, cherry-picked samples, set 6, dose response (AID 720513);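 note: cells made to overexpress flag tagged PGC1a plus GCN5 acetyltransferase by viral infection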
Settings: U2OS PGC1a acetylation AlphaLISA, overnight, 0 = neutral, -100 = inhibitor control; series mostly up to 19.5 µM
In all, about 2,100 compounds went through this assay and about 480 (23%) were called active. About 5% were inconclusive and are not listed. The list is a sample of the results. Results with a measured potency or affinity are listed apart.
Property label: outcome

> print(dat)
                                   compound  assay.result
1  COc1ccccc1CN1C[C@@H]2C[C@@H](c3cccc(C)n3)N3CCC[C@@]23C1=O      inactive
2  O=C(O)C1CCCN1S(=O)(=O)c1ccc(Br)s1 (stereo unspecified) (tested in a mixture with another compound)      inactive
3  COc1cccc(-c2ccc(C3[C@@H]4CN(Cc5cccc(F)c5)C[C@H]3N4)cc2)c1 (stereo partly specified)      inactive
4            CN(C)c1ccc(C=C2SC(=S)NC2=O)cc1      inactive
5  CN(C)CC(=O)N[C@H]1CC[C@H](CCNC(=O)Nc2ccc(Cl)cc2)O[C@H]1CO      inactive

For the compound shown here, Cc1cccc(-c2ccc(C3[C@@H]4CN(Cc5cccc(F)c5)C[C@H]3N4)cc2)c1 (stereo partly specified) , give the reported outcome.
inactive

Another compound to look at: COc1ccc(COc2cc(-c3cccc(OC)c3)nc3ccc(NC(=O)c4cccnc4)cc23)cc1
inactive

Another compound to look at: COc1ccccc1CN1C[C@@H]2N[C@H](C1)C2c1ccc(-c2ccccc2)cc1 (stereo partly specified)
inactive

Another compound to look at: O=c1c2cn(Cc3ccc(F)cc3)c3ccc(F)cc3c-2nn1Cc1ccc(F)cc1
inactive

Another compound to look at: CCN(CC)C(=O)c1sc(NC(=O)c2ccncc2)c(C(=O)OC)c1C
inactive

Another compound to look at: C#CCN1C(=O)C(O)(CC(=O)c2ccc(OC)c(OC)c2)c2ccccc21 (stereo unspecified)
inactive

---

Assay text: PGC1a acetylation increase, cellular AlphaLISA – cell-based, cherry-picked samples, set 6, dose response (AID 720513);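 note: cells made to overexpress flag tagged PGC1a plus GCN5 acetyltransferase by viral infection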
Settings: U2OS PGC1a acetylation AlphaLISA, overnight, 0 = neutral, -100 = inhibitor control; series mostly up to 19.5 µM
The whole screen tested about 2,100 compounds, of which about 480 (23%) were called active. About 5% were inconclusive and are not listed. Only a sample is shown. Results with a measured potency or affinity are listed apart.
Property label: outcome

Example results:
> print(dat)
                                   compound  assay.result
1  C[C@H]1CN([C@@H](C)CO)C(=O)Cc2cc(NC(=O)Nc3ccccc3)ccc2O[C@@H]1CN(C)Cc1ccccc1      inactive
2          COc1ccc(C(=O)Sc2nncc3ccccc23)cc1      inactive
3  O=C(Cc1cccc(NC(=O)C2CCN(C(=O)c3ccccc3)CC2)c1)Nc1cccc(C(=O)N2CCCCC2)c1      inactive
4  C[C@@H]1CN([C@H](C)CO)C(=O)Cc2cc(NC(=O)Cc3ccccc3)ccc2O[C@@H]1CN(C)S(C)(=O)=O      inactive
5        Cc1ccc2oc(Nc3nc(C)c(C)c(C)n3)nc2c1      inactive

For the compound shown here, CC1CCc2sc(C(=O)Nc3nnc(SCc4ccc(F)cc4)s3)cc2C1 (configuration not stated) , give the reported outcome.
inactive

Another compound to look at: O=C(c1ccco1)N1CCN(c2ncnc3scc(-c4cccs4)c23)CC1
inactive
